System: panel of breast cancer cell lines
Assay notes: Compound A with targeted agents and chemotherapies, 72-hour in vitro proliferation assays
Assay type: cell-based
Condition label: AU565 cell line; compound A × partner; 72-hour proliferation
Counter-ions that a name gives are not always drawn.
Entries whose Loewe Volume is below 2 take 1.0; entries at or above 2 take 0.0.

Examples from the recorded data:
INSERT INTO measurements (compound, category) VALUES
  ('CC(=O)c1c(C)c2cnc(Nc3ccc(N4CCNCC4)cn3)nc2n(C2CCCC2)c1=O', 1.0),
  ('O=C(c1cc(Cc2n[nH]c(=O)c3ccccc23)ccc1F)N1CCN(C(=O)C2CC2)CC1', 1.0),
  ('CC(C)NC[C@@H](C(=O)N1CCN(c2ncnc3c2[C@H](C)C[C@H]3O)CC1)c1ccc(Cl)cc1', 1.0),
  ('N.N.[Cl][Pt][Cl] [Cisplatin]', 1.0),
  ('CC1(C)CCC(c2ccc(Cl)cc2)=C(CN2CCN(c3ccc(C(=O)NS(=O)(=O)c4ccc(N[C@H](CCN5CCOCC5)CSc5ccccc5)c(S(=O)(=O)C(F)(F)F)c4)cc3)CC2)C1', 0.0);

In the following, a different compound is considered.
Dear reviewer, please state whether Nc1ccn([C@@H]2O[C@H](CO)[C@@H](O)C2(F)F)c(=O)n1 [Gemcitabine Hydrochloride] has Loewe Volume strictly beneath 2.
0.0

###

Test system: panel of breast cancer cell lines
Assay notes: Compound A with targeted agents and chemotherapies, 72-hour in vitro proliferation assays
Assay type: cell-based
Condition label: EVSA-T cell line; compound A × partner; 72-hour proliferation
Would you please tag the item Yes when its Bliss Volume is 7 or above, and No when it is below?

Examples from the recorded data:
INSERT INTO results (compound, test_target, category) VALUES
  ('Cn1ncnc1[C@H]1c2n[nH]c(=O)c3cc(F)cc(c23)N[C@@H]1c1ccc(F)cc1', 'panel of breast cancer cell lines', 'Yes'),
  ('O=C(c1cc(Cc2n[nH]c(=O)c3ccccc23)ccc1F)N1CCN(C(=O)C2CC2)CC1', 'panel of breast cancer cell lines', 'No'),
  ('CCOc1cc2ncc(C#N)c(Nc3ccc(OCc4ccccn4)c(Cl)c3)c2cc1NC(=O)/C=C/CN(C)C', 'panel of breast cancer cell lines', 'No');

In the following, a different compound is considered.
Reported Bliss Volume reaches at least 7 for Cc1c(-c2ccc(N3CCc4cccc(C(=O)Nc5nc6ccccc6s5)c4C3)nc2C(=O)O)cnn1CC12CC3CC(CC(C3)C1)C2 ?
Yes

###

Tested on: panel of breast cancer cell lines
Assay notes: Compound A with targeted agents and chemotherapies, 72-hour in vitro proliferation assays
Format: cell-based
Condition label: HCC1806; compound A × partner, 72-hour proliferation
In this section we review reported Loewe Volume values for a set of compounds.
Output: the number by itself.

INSERT INTO results (compound, test_target, measured_metric, observed) VALUES
  ('CC1(C)CCC(CN2CCN(c3ccc(C(=O)NS(=O)(=O)c4ccc(NCC5CCOCC5)c([N+](=O)[O-])c4)c(Oc4cnc5[nH]ccc5c4)c3)CC2)=C(c2ccc(Cl)cc2)C1 [ABT-199]', 'panel of breast cancer cell lines', 'Loewe Volume', 5.23),
  ('CC(=O)O[C@@]12CO[C@@H]1C[C@H](O)[C@@]1(C)C(=O)[C@H](O)C3=C(C)[C@@H](OC(=O)[C@H](O)[C@@H](NC(=O)OC(C)(C)C)c4ccccc4)C[C@@](O)([C@@H](OC(=O)c4ccccc4)[C@H]21)C3(C)C [Docetaxel]', 'panel of breast cancer cell lines', 'Loewe Volume', 12.66),
  ('C[C@]12CC[C@@H]3c4ccc(O)cc4C[C@@H](CCCCCCCCC[S+]([O-])CCCC(F)(F)C(F)(F)F)[C@H]3[C@@H]1CC[C@@H]2O (stereo partly drawn) [Fulvestrant]', 'panel of breast cancer cell lines', 'Loewe Volume', 1.90);

// query Loewe Volume value for entry CCOc1cc2ncc(C#N)c(Nc3ccc(OCc4ccccn4)c(Cl)c3)c2cc1NC(=O)/C=C/CN(C)C [Neratinib]
21.61

// query Loewe Volume value for entry CC(=O)c1c(C)c2cnc(Nc3ccc(N4CCNCC4)cn3)nc2n(C2CCCC2)c1=O [PD-0332991]
−1.04

// query Loewe Volume value for entry N.N.O=C([O-])C1(C(=O)[O-])CCC1.[Pt+2] [Carboplatin]
9.76

###

Test system: panel of breast cancer cell lines
Assay notes: Compound A with targeted agents and chemotherapies, 72-hour in vitro proliferation assays
Format: cell-based
Condition label: JIMT-1; compound A × partner, 72-hour proliferation
Where a name gives a salt, the structure may show the parent alone.
Categories are defined by ranges of Loewe Volume, namely low interval = under -0.5, middle interval = from -0.5 up to 4, high interval = 4 and over

Examples from the recorded data:
INSERT INTO measurements (compound, category) VALUES
  ('Nc1ccn([C@@H]2O[C@H](CO)[C@@H](O)C2(F)F)c(=O)n1 [Gemcitabine Hydrochloride]', 'middle interval'),
  ('N.N.[Cl][Pt][Cl] [Cisplatin]', 'low interval'),
  ('C[C@]12CC[C@@H]3c4ccc(O)cc4C[C@@H](CCCCCCCCC[S+]([O-])CCCC(F)(F)C(F)(F)F)[C@H]3[C@@H]1CC[C@@H]2O (stereo partly drawn) [Fulvestrant]', 'high interval'),
  ('Cc1c(-c2ccc(N3CCc4cccc(C(=O)Nc5nc6ccccc6s5)c4C3)nc2C(=O)O)cnn1CC12CC3CC(CC(C3)C1)C2 [Compound A-1331852]', 'high interval'),
  ('CC(=O)O[C@@]12CO[C@@H]1C[C@H](O)[C@@]1(C)C(=O)[C@H](O)C3=C(C)[C@@H](OC(=O)[C@H](O)[C@@H](NC(=O)OC(C)(C)C)c4ccccc4)C[C@@](O)([C@@H](OC(=O)c4ccccc4)[C@H]21)C3(C)C [Docetaxel]', 'middle interval');

Bin this entry: CO[C@H]1C[C@@H]2CC[C@@H](C)[C@@](O)(O2)C(=O)C(=O)N2CCCC[C@H]2C(=O)O[C@H]([C@H](C)C[C@@H]2CC[C@@H](OCCO)[C@H](OC)C2)CC(=O)[C@H](C)/C=C(\C)[C@@H](O)[C@@H](OC)C(=O)[C@H](C)C[C@H](C)/C=C/C=C/C=C/1C [Everolimus]
middle interval

Bin this entry: CCN1CCN(Cc2ccc(Nc3ncc(F)c(-c4cc(F)c5nc(C)n(C(C)C)c5c4)n3)nc2)CC1 [Abemaciclib]
middle interval

Bin this entry: CC(C)NC[C@@H](C(=O)N1CCN(c2ncnc3c2[C@H](C)C[C@H]3O)CC1)c1ccc(Cl)cc1 [GDC-0068]
middle interval

Bin this entry: CN(C)C(=O)c1cc2cnc(Nc3ccc(N4CCNCC4)cn3)nc2n1C1CCCC1 [LEE011]
low interval

Bin this entry: O=C(c1cc(Cc2n[nH]c(=O)c3ccccc23)ccc1F)N1CCN(C(=O)C2CC2)CC1 [Olaparib]
low interval

Bin this entry: CC1(C)CCC(c2ccc(Cl)cc2)=C(CN2CCN(c3ccc(C(=O)NS(=O)(=O)c4ccc(N[C@H](CCN5CCOCC5)CSc5ccccc5)c(S(=O)(=O)C(F)(F)F)c4)cc3)CC2)C1 [ABT-263]
high interval

Bin this entry: Cn1ncnc1[C@H]1c2n[nH]c(=O)c3cc(F)cc(c23)N[C@@H]1c1ccc(F)cc1 [BMN 673]
low interval

Bin this entry: CCOc1cc2ncc(C#N)c(Nc3ccc(OCc4ccccn4)c(Cl)c3)c2cc1NC(=O)/C=C/CN(C)C [Neratinib]
high interval

Bin this entry: N.N.O=C([O-])C1(C(=O)[O-])CCC1.[Pt+2] [Carboplatin]
middle interval

Bin this entry: CC1(C)CCC(CN2CCN(c3ccc(C(=O)NS(=O)(=O)c4ccc(NCC5CCOCC5)c([N+](=O)[O-])c4)c(Oc4cnc5[nH]ccc5c4)c3)CC2)=C(c2ccc(Cl)cc2)C1 [ABT-199]
low interval

###

System: panel of breast cancer cell lines
Assay notes: Compound A with targeted agents and chemotherapies, 72-hour in vitro proliferation assays
Format: cell-based
Condition label: BT-20 cell line; compound A × partner; 72-hour proliferation
In this section we review reported Loewe Volume values for a set of compounds.

Some compounds with known Loewe Volume results, for comparison:
INSERT INTO measurements (compound, test_target, observed) VALUES
  ('O=C(c1cc(Cc2n[nH]c(=O)c3ccccc23)ccc1F)N1CCN(C(=O)C2CC2)CC1 [Olaparib]', 'panel of breast cancer cell lines', 0.63),
  ('CC1(C)CCC(c2ccc(Cl)cc2)=C(CN2CCN(c3ccc(C(=O)NS(=O)(=O)c4ccc(N[C@H](CCN5CCOCC5)CSc5ccccc5)c(S(=O)(=O)C(F)(F)F)c4)cc3)CC2)C1 [ABT-263]', 'panel of breast cancer cell lines', 37.81),
  ('CC(=O)O[C@@]12CO[C@@H]1C[C@H](O)[C@@]1(C)C(=O)[C@H](O)C3=C(C)[C@@H](OC(=O)[C@H](O)[C@@H](NC(=O)OC(C)(C)C)c4ccccc4)C[C@@](O)([C@@H](OC(=O)c4ccccc4)[C@H]21)C3(C)C [Docetaxel]', 'panel of breast cancer cell lines', 19.90);

// query Loewe Volume value for entry CC1(C)CCC(CN2CCN(c3ccc(C(=O)NS(=O)(=O)c4ccc(NCC5CCOCC5)c([N+](=O)[O-])c4)c(Oc4cnc5[nH]ccc5c4)c3)CC2)=C(c2ccc(Cl)cc2)C1 [ABT-199]
5.94

// query Loewe Volume value for entry C[C@]12CC[C@@H]3c4ccc(O)cc4C[C@@H](CCCCCCCCC[S+]([O-])CCCC(F)(F)C(F)(F)F)[C@H]3[C@@H]1CC[C@@H]2O (some centres unmarked) [Fulvestrant]
3.44
